Numbers sourced from ChEMBL document CHEMBL4513216.

Listed here are compounds together with their documented INHIBITION.
# Tested on: Plasmodium berghei
# method-summary: Screen against P. berghei liver stage (PbLuc), transformed with Luciferase, at 10uM
# Assay type: functional, HepG2
# measurement-setup: tested at 10 uM
The whole screen tested about 69,000 compounds, of which about 8,600 (12%) showed an effect of 50% or more. This excerpt belongs to a sample that is enriched for strong results.
State the value, then name its unit.

CC(C)c1nc2c(n1C)CCN(Cc1nc(-c3ccco3)no1)C2 : 7.08%
CN(C)c1ccccc1C(=O)N1CCCC(c2ccc(C(=O)O)cc2)C1 (stereo unspecified) : 18.6%
O=C(NC1COC2(CCN(CC3CCC3)CC2)C1)c1ccccn1 (stereo unspecified) : -7.59%
CCNc1ncc(C(=O)N(C)Cc2nc3ccccc3n2C)cn1 : 16.2%
NC(=O)NC(=O)C(c1ccccc1)N1CCN(Cc2ccsc2)CC1 (stereo unspecified) : 4.52%

// next item, INHIBITION requested
Can you look up the measured INHIBITION of CSCCNc1ccc(C(=O)N(C)Cc2ccc3ccccc3n2)cn1 for me?
56.1%

---

Listed here are molecules together with their documented INHIBITION.
# Tested on: Plasmodium berghei
# method-summary: Screen against P. berghei liver stage (PbLuc), transformed with Luciferase, at 10uM
# Assay type: functional, HepG2
# measurement-setup: tested at 10 uM
The whole screen tested about 69,000 compounds, of which about 8,600 (12%) showed an effect of 50% or more. The full list was thinned out, with strong results kept by preference.
Give just the numeric value; % need not be written.

Check out these entries, answers already filled in.
CC(=O)N(Cc1ncc(C)o1)C1CCN(Cc2ccc(F)c(F)c2)C1 (configuration not stated) : 68.9
Cc1ccc(C(=O)N2C[C@@H](NS(C)(=O)=O)[C@H](C(C)C)C2)cc1O : 18
Cc1cccc(N2CCN(C(=O)CCc3ccsc3)C(C)C2)n1 (configuration not stated) : -16.8

For Plasmodium berghei, provide INHIBITION of CC(C)(C)c1coc([C@@H]2COCCN2Cc2ncc[nH]2)n1 please.
20.9

Repeat with O=C(O)CCn1ccc(=O)c2cc(F)ccc21
38.1

Repeat with Cc1cc(CNC(C)Cn2cncn2)ccc1Br (configuration not stated)
41.4

Repeat with Cc1cnc(CN(C)C2CCN(Cc3cnc(C)s3)C2)o1 (configuration not stated)
23.1

Repeat with N#Cc1cccc(N2CCCC3(C2)CN(c2ncc(F)cn2)CCO3)n1 (configuration not stated)
8.31

Repeat with CCN(Cc1cn(CC2CCNCC2)nn1)CC1CCCO1 (configuration not stated)
-16.3

---

# Test system: Plasmodium berghei
# method-summary: Screen against P. berghei liver stage (PbLuc), transformed with Luciferase, at 10uM
# Assay type: functional, HepG2
# measurement-setup: tested at 10 uM
The campaign covered roughly 69,000 compounds. About 8,600 (12%) showed an effect of 50% or more. The full list was thinned out, with strong results kept by preference.
Listed here are molecules together with their documented INHIBITION.
State the value, then name its unit.

Check out these entries, answers already filled in.
COc1ncc(CN2CC[C@@](C)(O)[C@H](Oc3cccc(F)c3)C2)cn1 : 37.9%
CC1CCc2nc(O)c(C(=O)NCCc3cccs3)cc2C1 (centres undefined) : -111%
O=C(c1ncccn1)N1C[C@@H]2COC[C@]2(c2nnc(C3CC3)o2)C1 : -36.5%
Cc1nc2n(n1)CC(NCc1cc(Cl)c3c(c1)OCCO3)CC2 (centres undefined) : 13.6%
COCCNC(=O)c1cc2c(nc1O)CC(c1cccs1)CC2=O (centres undefined) : 55.2%
C[C@]1(O)CCN(Cc2c[nH]cn2)C[C@@H]1Oc1cccc(F)c1 : 32.3%

Can you look up the measured INHIBITION of CCn1cnc(NC(=O)N2CCC(c3ccc(Cl)cc3)C2)n1 (centres undefined) for me?
58.2%

Repeat with CCc1nnc2n1CCN(C(=O)c1cc(Cl)c[nH]1)C2
24.39%

Repeat with CC(C)NC(=O)CN1CCCNCC1
3.77%

Repeat with CC(=O)N1CCC12CCN(Cc1ccco1)CC2
9.97%

Repeat with CCc1cc(N[C@H]2CCC[C@H]2CO)n2nc(C)c(C)c2n1
16.3%

---

# System: Plasmodium berghei
# method-summary: Screen against P. berghei liver stage (PbLuc), transformed with Luciferase, at 10uM
# Type: functional, HepG2
# measurement-setup: tested at 10 uM
Screen size: about 69,000 compounds; about 8,600 (12%) showed an effect of 50% or more. The full list was thinned out, with strong results kept by preference.
assay-readout: INHIBITION (%)
Give just the numeric value; % need not be written.

Check out these entries, answers already filled in.
Cc1cc(=O)[nH]c(-n2nc(-c3cccs3)cc2N)n1 : 20.9
CC(C(N)=O)n1nc(-c2cccs2)cc(N)c1=O (stereo unspecified) : 17.4
CCCc1cc(=O)[nH]c(-n2nc(-c3cccs3)cc2N)n1 : 83.8
CNC(=O)c1ccc(-c2ccc(CNS(=O)(=O)N(C)C)cc2)nc1C : 8.12
NC1(c2nc(-c3cccs3)cc(=O)[nH]2)CCCC1 : -35.8

// next item, INHIBITION requested
Can you look up the measured INHIBITION of CNC(=O)NC(=O)CN1CCc2c(Br)ccc(F)c2C1 for me?
-34.8

---

# Tested on: Plasmodium berghei
# method-summary: Screen against P. berghei liver stage (PbLuc), transformed with Luciferase, at 10uM
# Format: functional, HepG2
# measurement-setup: tested at 10 uM
Screen size: about 69,000 compounds; about 8,600 (12%) showed an effect of 50% or more. This excerpt belongs to a sample that is enriched for strong results.
Measured INHIBITION determines class: lower band: < 10%; central band: ≥ 10% and < 30%; upper band: ≥ 30%

CC(C)[C@@H]1CN(CCCOc2ccc(F)cc2)C[C@H]1NS(C)(=O)=O : upper band
CN(C)C(=O)COC[C@@H]1CC[C@H]2[C@H](CCN2c2ccccn2)O1 : central band
CCc1ccccc1OCCN1C[C@@H](NS(C)(=O)=O)[C@H](C(C)C)C1 : upper band
CN(C)[C@@H]1CN(C(=O)CCc2ccccc2)[C@@H]2CCCO[C@H]12 : lower band
CCc1ccccc1OCCN1CCC(NS(C)(=O)=O)CC1 : upper band
Cc1nc(CN2C(=O)CCC23CCN(Cc2ccccn2)CC3)cs1 : central band

# classify by INHIBITION band: COc1ccc(NC(=O)Nc2c(O)c3ccccc3oc2=O)cc1
upper band

Repeat with COc1cc(CNC(=O)c2cc(S(C)(=O)=O)ccc2C)ccn1
lower band

Repeat with CCN(C(=O)COc1nc(C(C)(C)C)no1)C1CC1
lower band

Repeat with CC(C)[C@@H]1CN(CCOc2ccc(Cl)cc2)C[C@H]1NS(C)(=O)=O
central band

Repeat with Cn1c(=O)[nH]c(=O)n2c(CC(=O)NCc3ccccc3)cnc12
central band

---

Listed here are molecules together with their documented INHIBITION.
# Tested on: Plasmodium berghei
# method-summary: Screen against P. berghei liver stage (PbLuc), transformed with Luciferase, at 10uM
# Assay type: functional, HepG2
# measurement-setup: tested at 10 uM
Out of some 69,000 compounds screened, about 8,600 (12%) showed an effect of 50% or more. For the sample, strong results were picked, then their nearest neighbours and some compounds at random.
Give just the numeric value; % need not be written.

CC(C)c1nc(N2CCC(N3CCSCC3)CC2)c2cnn(C)c2n1 : 21.1
Cn1c(=O)c2cc(C(=O)NCc3ccccn3)ccc2n(C)c1=O : 26.3

Can you look up the measured INHIBITION of CCn1c(C2CCCN2Cc2noc(C(C)(C)C)n2)nc2ccccc21 (centres undefined) for me?
-12.1

Repeat with COc1ccc(CC2CN(Cc3cncn3C)CCO2)cc1 (centres undefined)
47.1

Repeat with CC(C)c1cc(NC(=O)CN2CCCC2Cn2cccn2)on1 (centres undefined)
19.5

Repeat with NC(=O)c1ccc(OCCCN2C[C@H](C3CC3)[C@@H](N)C2)cc1
-13.4

Repeat with O=C(C1CCC2(CCN(CC3CC3)CC2)O1)N1CCCC1 (centres undefined)
1.34

Repeat with c1ccc(CN2CCC(CNc3ncnc4c3CCNCC4)CC2)cc1
28.7

Repeat with Nc1cc(CCC2CN(Cc3ccc4c(c3)OCCO4)CCO2)ccn1 (centres undefined)
69.3

Repeat with Nc1cc(CCC2CN(Cc3cccc(C(=O)O)c3)CCO2)ccn1 (centres undefined)
45.6

Repeat with Nc1cc(CCC2CN(Cc3ccc(C(=O)O)cc3)CCO2)ccn1 (centres undefined)
32.8

Repeat with CC(C)c1nccn1-c1cncc(C2CCCN2Cc2cccnc2)n1 (centres undefined)
27.6

Repeat with N[C@H]1CN(S(=O)(=O)c2cccnc2)C[C@@H]1C1CC1
1.98

Repeat with N[C@H]1CN(CCCOc2ccccc2)C[C@@H]1C1CC1
53.8

Repeat with Cc1ccc(-n2cccn2)cc1S(=O)(=O)N1C[C@H]2CC[C@@H](C1)N(C)C2
48.1
